variants and their reported self-cleavage
B1: HDV Ribozyme (parent)
chain: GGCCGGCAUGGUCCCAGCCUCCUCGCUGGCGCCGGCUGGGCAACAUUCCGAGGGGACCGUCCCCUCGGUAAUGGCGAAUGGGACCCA

Variants of: B1
Test: self-cleavage, relative activity (ratio to wild type); higher = more cleavage; co-transcriptional
Quantity kind: self-cleavage

>>> df
    mutant_id  quantity_kind  readout_number
 0  G40U A78C  self-cleavage           0.132
 1  A16U C61U  self-cleavage            1.04
 2  C61U C75A  self-cleavage           0.201
 3  U47C G80A  self-cleavage           0.215
 4  C57G C84A  self-cleavage           0.933
 5  U20A C44G  self-cleavage           0.111
 6  U72A G81C  self-cleavage          0.0898
 7  A77U A87U  self-cleavage           0.785
 8  C41A U60C  self-cleavage            1.05
 9  G59U C66G  self-cleavage           0.981
10  C18A U20C  self-cleavage               0
11  C30G C33G  self-cleavage           0.115
12   C3U C49A  self-cleavage           0.843
13  C33A G39C  self-cleavage          0.0678
14  A45U G68U  self-cleavage           0.845
15   U9A G53A  self-cleavage             1.2
16  G39A C64A  self-cleavage           0.458
17   C4A C26G  self-cleavage           0.348
18  G17U C19U  self-cleavage           0.199
19  C30G C62A  self-cleavage           0.122
20   U9A C57U  self-cleavage            1.19
21   C3G C49A  self-cleavage           0.736
22  G55C U72C  self-cleavage           0.798
23  U12G G82U  self-cleavage           0.519
24  A51C A83U  self-cleavage           0.609
25  G54C C84G  self-cleavage           0.917
26  C49G G82A  self-cleavage          0.0966
27  C13G C84G  self-cleavage          0.0978
28  C18G A83G  self-cleavage          0.0707
29   G5C C66A  self-cleavage           0.172
30  G11A A87G  self-cleavage           0.502
31  U23G G31A  self-cleavage           0.175
32   U9C G52C  self-cleavage            1.02
33   G5C A71G  self-cleavage          0.0923
34  A42G A71U  self-cleavage           0.502
35  U27A U60C  self-cleavage            1.21
36  A51G G74U  self-cleavage           0.434
37   C7U G73U  self-cleavage           0.277
38  C58A G68U  self-cleavage            1.04
39  C44G C62G  self-cleavage           0.485
40  U20G U79G  self-cleavage           0.208
41  C44U G67A  self-cleavage            0.82
42  G35A U69C  self-cleavage           0.591
43  G53U G59C  self-cleavage            1.23
44  C21A A83C  self-cleavage          0.0378
45   C7A C49A  self-cleavage           0.538

Recorded values, source the RNAGym collection of RNA variant scans (doi:10.7554/elife.80360).
